These data points were gathered from PubChem BioAssay (NCI).

test system: HCT-116 colon; test: NCI-60 one-dose screen, 48 h (100 = growth as untreated, 0 = no growth, -100 = all killed); conditions: 10 µM unless noted
The panel holds about 83,000 compounds, 20% with a hit somewhere; the sample as a whole holds those more often. The source made the active and inactive calls. How the source made its calls: active means growth percent below 10; inactive means the rest.
Kindly state growth for each of the entries shown.

Reported growth, compound Cc1sc2c(c1C)c(=O)nc1c(-c3nc4ccccc4s3)n[nH]n12 : ____
90% (inactive)

Reported growth, compound COc1ccc(-n2c(=O)c3ccccc3n(Cc3ccc(C(=O)NO)cc3)c2=O)cc1 : ____
-19.9% (active)

Reported growth, compound Cc1cc2c(-c3nc4ccccn4c3N)c(O)c(O)cc2c(O)c1-c1c(C)cc2c(-c3nc4ccccn4c3N)c(O)c(O)cc2c1O : ____
9.9% (active)

Reported growth, compound C[C@@]1(C(=O)Nc2ccc(F)nc2)CCCN1c1nc(Nc2cc(C3CC3)[nH]n2)c2cccn2n1 : ____
7.82% (active)

Reported growth, compound Oc1ccc(C(c2ccc(O)cc2)C(Cl)(Cl)Cl)cc1 : ____
83.8% (inactive)

Reported growth, compound Cc1cc(N2CCCC2)nc(N(CCCNc2ccnc3cc(Cl)ccc23)Cc2ccc3c(c2)OCO3)n1 : ____
-22.9% (active)

Reported growth, compound O=C(c1ccccc1)C(c1ccccc1)N1CCOCC1 (stereo not given) : ____
102% (inactive)

Reported growth, compound O=S1(=O)OC(c2ccc(O)c(Cl)c2)(c2ccc(O)c(Cl)c2)c2ccccc21 : ____
99.8% (inactive)

Reported growth, compound NC(=O)c1c(OCc2c(F)cc(Br)cc2F)nsc1NC(=O)NCCCCN1CCCC1 : ____
-37.9% (active)

Reported growth, compound O=C(Cc1ccc(/C=C/C(=O)c2ncc[nH]2)cc1)Nc1ccc(S(F)(F)(F)(F)F)cc1 : ____
-73.6% (active)
